Biological target: rat adrenergic α1B receptor (Rattus norvegicus, UniProt P15823)
Construct: rat adrenergic α1B receptor obtained from Wistar Rat liver; from tissue; host or cells: Wistar rat liver
Sequence (P15823 1-515): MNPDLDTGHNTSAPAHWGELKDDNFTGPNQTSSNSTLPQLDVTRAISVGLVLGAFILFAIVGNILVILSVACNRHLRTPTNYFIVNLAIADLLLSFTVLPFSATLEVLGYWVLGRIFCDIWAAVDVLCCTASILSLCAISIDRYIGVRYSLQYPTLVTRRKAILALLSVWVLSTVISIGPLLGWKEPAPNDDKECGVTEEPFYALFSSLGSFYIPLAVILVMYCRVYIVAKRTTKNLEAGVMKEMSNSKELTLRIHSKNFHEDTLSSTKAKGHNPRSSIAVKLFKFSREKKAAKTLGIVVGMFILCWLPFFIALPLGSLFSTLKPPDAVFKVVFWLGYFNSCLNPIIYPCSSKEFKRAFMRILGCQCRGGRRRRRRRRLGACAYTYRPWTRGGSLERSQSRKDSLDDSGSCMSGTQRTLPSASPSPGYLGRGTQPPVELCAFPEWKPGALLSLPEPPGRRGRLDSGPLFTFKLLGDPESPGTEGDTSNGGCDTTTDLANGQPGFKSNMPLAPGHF
Test: Radioligand binding, adrenergic α1B receptor ([3H]Prazosin)
Conditions: 0.1 μM compound, Wistar rat liver, read-out: Percentage inhibition of ligand binding, Adrenergic α1B
Test Readout: inhibition at 0.1 µM (%)

Solved cases (2 shown):
• Cc1ccc2c(c1)c1c(n2-c2ccc(-c3c(C)noc3C)cn2)CCN(C)C1 = 72
• Cc1ccc2c(c1)c1c(n2-c2ccccc2-c2cnn(C)c2)CCN(C)C1 = 26

1. Cc1ccc2c(c1)c1c(n2-c2cccc3ccncc23)CCN(C)C1
2. CC(=O)Nc1ccc(-c2cccc(-n3c4c(c5cc(C)ccc53)CN(C)CC4)c2)cn1
[ask] Lab log: flag the item ( 1 or 2 ) with the smaller inhibition at 0.1 µM figure. Refer to your chosen entry by its label in the reply.
[reply] 2
(2: 1%, 1: 22%)

---

Target: human recombinant adrenergic α1D receptor (Homo sapiens, UniProt P25100)
Construct: expressed in transfected cells; host or cells: HEK-293
Sequence (P25100 1-572): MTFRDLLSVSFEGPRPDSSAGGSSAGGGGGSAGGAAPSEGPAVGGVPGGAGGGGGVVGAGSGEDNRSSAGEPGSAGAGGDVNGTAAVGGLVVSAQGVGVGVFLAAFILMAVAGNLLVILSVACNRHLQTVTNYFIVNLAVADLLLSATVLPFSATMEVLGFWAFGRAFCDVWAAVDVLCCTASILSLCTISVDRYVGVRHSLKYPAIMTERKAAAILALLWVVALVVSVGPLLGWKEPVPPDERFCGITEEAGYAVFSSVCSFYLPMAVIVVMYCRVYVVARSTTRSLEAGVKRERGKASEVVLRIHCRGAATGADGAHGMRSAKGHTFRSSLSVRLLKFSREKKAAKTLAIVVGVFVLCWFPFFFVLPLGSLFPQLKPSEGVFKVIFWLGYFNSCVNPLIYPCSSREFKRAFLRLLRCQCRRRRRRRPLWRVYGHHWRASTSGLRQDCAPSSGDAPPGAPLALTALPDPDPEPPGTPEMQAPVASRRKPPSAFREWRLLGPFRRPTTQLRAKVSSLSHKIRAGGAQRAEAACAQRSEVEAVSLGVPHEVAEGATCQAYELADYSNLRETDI
Experiment: Radioligand binding, adrenergic α1D receptor ([3H]Prazosin)
Details: 0.1 μM compound; HEK-293 cells; 0.6 nM [3H]Prazosin; read-out: Percentage inhibition of ligand binding, Adrenergic α1D
Test Readout: inhibition at 0.1 µM (%)

For orientation, consider the following solved cases.
• Cc1ccc2c(c1)c1c(n2-c2ccc(-c3ccc(F)nc3)cn2)CCN(C)C1 [Compound No. 142] = 78
• Cc1ccc2c(c1)c1c(n2-c2ccccc2-c2cn[nH]c2)CCN(C)C1 [Compound No. 104] = 22
• Cc1csc(-c2cccc(-n3c4c(c5cc(C)ccc53)CN(C)CC4)c2)c1 [Compound No. 63] = 5
• CNC(=O)c1cc(-n2c3c(c4cc(C)ccc42)CN(C)CC3)cs1 [Compound No. 78] = 21
• Cc1csc(-c2ccc(-n3c4c(c5cc(C)ccc53)CN(C)CC4)nc2)c1 [Compound No. 144] = 52

A. Cc1ccc2c(c1)c1c(n2-c2ccccc2-c2ccc(O)nc2)CCN(C)C1 [Compound No. 80]
B. Cc1ccc2c(c1)c1c(n2-c2cscc2-c2ccnn2C)CCN(C)C1 [Compound No. 150]
C. Cc1ccc2c(c1)c1c(n2-c2ccccc2-c2cncc3ccccc23)CCN(C)C1 [Compound No. 87]
D. Cc1ccc2c(c1)c1c(n2-c2cccc(-c3cnc(N(C)C)nc3)c2)CCN(C)C1 [Compound 42]
[ask] Order the items by recorded inhibition at 0.1 µM; the first position goes to the largest value. Present the labels in the sequence the task asks for.
[reply] B, A, C, D
